- System tested: T1, EsCas13d, nuclease-dead (Eubacterium siraeum, UniProt B0MS50, R295A;H300A;R849A;H854A)
- T1 sequence: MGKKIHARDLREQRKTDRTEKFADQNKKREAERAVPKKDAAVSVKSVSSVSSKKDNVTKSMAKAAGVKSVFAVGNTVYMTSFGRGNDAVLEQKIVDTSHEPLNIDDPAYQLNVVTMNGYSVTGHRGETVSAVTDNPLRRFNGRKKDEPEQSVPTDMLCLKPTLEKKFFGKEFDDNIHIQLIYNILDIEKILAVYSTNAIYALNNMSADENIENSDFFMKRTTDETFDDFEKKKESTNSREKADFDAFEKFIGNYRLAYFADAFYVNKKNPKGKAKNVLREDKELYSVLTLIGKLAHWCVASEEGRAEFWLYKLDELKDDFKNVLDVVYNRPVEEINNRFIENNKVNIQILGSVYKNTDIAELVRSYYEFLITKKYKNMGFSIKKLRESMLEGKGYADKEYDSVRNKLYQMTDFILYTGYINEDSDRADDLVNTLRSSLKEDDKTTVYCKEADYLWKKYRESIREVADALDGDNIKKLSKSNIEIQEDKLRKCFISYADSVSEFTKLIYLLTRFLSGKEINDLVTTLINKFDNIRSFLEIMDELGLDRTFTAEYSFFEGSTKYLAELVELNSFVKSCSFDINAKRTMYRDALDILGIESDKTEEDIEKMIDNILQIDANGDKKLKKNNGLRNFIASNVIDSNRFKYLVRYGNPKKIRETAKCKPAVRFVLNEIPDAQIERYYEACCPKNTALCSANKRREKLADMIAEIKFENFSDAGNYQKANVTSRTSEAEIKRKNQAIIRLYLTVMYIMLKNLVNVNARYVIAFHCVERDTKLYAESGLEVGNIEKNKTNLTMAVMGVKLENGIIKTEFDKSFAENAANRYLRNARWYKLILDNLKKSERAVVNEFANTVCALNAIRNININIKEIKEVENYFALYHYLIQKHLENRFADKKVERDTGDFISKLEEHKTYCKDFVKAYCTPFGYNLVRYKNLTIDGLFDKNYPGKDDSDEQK
- Test protocol: crRNA (strand 1, pre-loaded); Mg2+; 40 mM Tris-HCl pH 7.5, 150 mM NaCl, 6 mM MgCl2, 1 mM DTT, 0.1% Tween-20, 0.2 mg/ml BSA; 25 C; 10 min per concentration, then washed
- Run parameters: tags: His6-TwinStrep-SUMO cleaved; N-terminal SNAP kept (SNAP-Surface 488); label: 3' end held by stalled T7 RNA polymerase
Readout label: Kd (µM)
Please reply with the bare figure in µM and do not write the unit itself.

Briefly, Kd measured for target 1 insG 3' of 22,insG 3' of 7 (mixed) RNA 1: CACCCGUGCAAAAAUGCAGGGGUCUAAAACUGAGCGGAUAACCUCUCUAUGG RNA 2: GGGAAUGGAUCCACAUCUACGAAUUCGUACGCAUAGAGAGGUUAUCGCGCUCACCGAGAUCGGAAGAGCACACGU : 0.0181

Briefly, Kd measured for target 1 insC 3' of 10,insA 3' of 10 (mixed) RNA 1: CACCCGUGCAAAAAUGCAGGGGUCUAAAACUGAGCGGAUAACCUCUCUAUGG RNA 2: GGGAAUGGAUCCACAUCUACGAAUUCGUACCAUAGAGAGGUUCAAUCCGCUCACCGAGAUCGGAAGAGCACACGU : 0.0135

Briefly, Kd measured for target 1 MT 5'PFS GAA 3'PFS AAU (mixed) RNA 1: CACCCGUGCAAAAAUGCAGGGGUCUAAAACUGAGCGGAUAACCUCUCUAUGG RNA 2: GGGAAUGGAUCCACAUCUACGAAUUCGAACCAUAGAGAGGUUAUCCGCUCAAAUAGAUCGGAAGAGCACACGU : 0.0405

Briefly, Kd measured for target 1 U10A,A16C (mixed) RNA 1: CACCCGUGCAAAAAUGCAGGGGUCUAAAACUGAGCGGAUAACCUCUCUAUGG RNA 2: GGGAAUGGAUCCACAUCUACGAAUUCGUACCAUAGCGAGGUAAUCCGCUCACCGAGAUCGGAAGAGCACACGU : 0.068

Briefly, Kd measured for target 1 MT 5'PFS CCG 3'PFS CGG (mixed) RNA 1: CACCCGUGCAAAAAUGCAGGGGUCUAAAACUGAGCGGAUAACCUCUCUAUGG RNA 2: GGGAAUGGAUCCACAUCUACGAAUUCCCGCCAUAGAGAGGUUAUCCGCUCACGGAGAUCGGAAGAGCACACGU : 0.019

Briefly, Kd measured for target 1 MT 5'PFS GGC 3'PFS UAU (mixed) RNA 1: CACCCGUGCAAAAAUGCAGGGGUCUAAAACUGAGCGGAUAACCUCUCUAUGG RNA 2: GGGAAUGGAUCCACAUCUACGAAUUCGGCCCAUAGAGAGGUUAUCCGCUCAUAUAGAUCGGAAGAGCACACGU : 0.016

Briefly, Kd measured for target 2 MT 5'PFS GAU 3'PFS CUC (mixed) RNA 1: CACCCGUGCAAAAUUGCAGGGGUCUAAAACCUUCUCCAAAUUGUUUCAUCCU RNA 2: GGGAAUGGAUCCACAUCUACGAAUUCGAUAGGAUGAAACAAUUUGGAGAAGCUCAGAUCGGAAGAGCACACGU : 0.0178

Entry source: paper PMC10786891
